Value source: patent US10183914B2

As shown below, each of these compounds has a reported post-emergence efficacy LOLMU value.
Test system: Lolium multiflorum
assay comment: Post-emergence herbicidal effect
Type: in vivo
setup conditions: 320 g/ha, visual scoring after about 3 weeks
State the answer as a number, implicitly in %.

O=C1CCCc2nc(N[C@@H]3CCOc4c(F)cccc43)ncc21; 100
CC(C)C1CC(=O)c2cnc(N[C@@H]3CCc4ccccc43)nc2C1 (some centres unmarked); 80
Cc1ccc2c(c1)[C@H](Nc1ncc3c(n1)COCC3=O)[C@@H](C)C2; 100
CC(=O)c1cnc(N[C@H]2c3cc(C)ccc3C[C@@H]2C)nc1C; 80
O=C1CCCc2nc(NC3CCc4ccccc43)ncc21 (racemic); 100
Cc1ccc2c(c1)[C@H](Nc1ncc3c(n1)CCCC3=O)[C@@H](C)C2 [2.43]; 100

The compound listed as "O=C1CCCc2nc(N[C@@H]3CCCc4ccccc43)ncc21" shows post-emergence efficacy LOLMU equal to 100

Kindly note the recorded post-emergence efficacy LOLMU for Cc1ccc2c(c1)[C@H](Nc1ncc3c(n1)CCCC3=O)[C@@H](C)C2 [2.118] , which is 80

Entry "Cc1cccc2c1OCC[C@H]2Nc1ncc2c(n1)CCCC2=O" — recorded post-emergence efficacy LOLMU = 100

get_value(item= Cc1ccc2c(c1)[C@H](Nc1ncc3c(n1)CC(C(F)(F)F)CC3=O)[C@@H](C)C2 (some centres unmarked) , readout=post-emergence efficacy LOLMU) returns 100

"Cc1ccc2c(c1)[C@H](Nc1ncc3c(n1)CC(C)(C)CC3=O)[C@@H](C)C2" has a reported post-emergence efficacy LOLMU of 100

---

LOLMU herbicidal activity in percent: recorded values
System: Lolium multiflorum
assay comment: Pre-emergence herbicidal effect
Format: in vivo
setup conditions: 320 g/ha, 3 weeks

Please review the following examples before continuing.
O=C1CCCc2nc(N[C@@H]3CCCc4c(F)cccc43)ncc21; 100%
Cc1ccc2c(c1)[C@H](Nc1ncc3c(n1)CCCC3=O)[C@@H](C)C2 [2.118]; 100%
O=C1CCCc2nc(NC3CCc4ccccc43)ncc21 (racemic); 100%

Lab book: LOLMU herbicidal activity in percent of CC(C)C1CC(=O)c2cnc(N[C@@H]3CCc4ccccc43)nc2C1 (stereo partly drawn) noted as 90%

The molecule identified as "CC(=O)c1cnc(N[C@H]2c3cc(C)ccc3C[C@@H]2C)nc1C" registered its LOLMU herbicidal activity in percent at 100%

LOLMU herbicidal activity in percent reported for this molecule Cc1ccc2c(c1)[C@H](Nc1ncc3c(n1)CC(C)CC3=O)[C@@H](C)C2 (stereo partly drawn) : 100%

---

System: Zea mays
assay comment: Pre-emergence herbicidal effect and crop plant compatibility
Format: in vivo
setup conditions: 1280 g/ha, 3 weeks
value type: ZEAMX herbicidal activity in percent
Units required after the number.

CC(=O)c1cnc(N[C@@H]2CCc3c(F)cccc32)nc1; 20%
O=C1CC(c2ccccc2F)Cc2nc(N[C@@H]3CCCc4ccccc43)ncc21 (stereo partly shown); 0%
Cc1ccc2c(c1)[C@H](Nc1ncc3c(n1)CC(c1ccccc1F)CC3=O)[C@@H](C)C2 (stereo partly shown); 0%

Now consider the entry below.
ZEAMX herbicidal activity in percent reported for this molecule CC(=O)c1cnc(NC2c3ccccc3CCC2C)nc1 (racemic) : 0%

---

Tested on: Setaria viridis
assay comment: Post-emergence herbicidal effect
Format: in vivo
setup conditions: 320 g/ha (dose by row order of upper half), scoring after about 3 weeks
value type: post-emergence efficacy SETVI (%)
Write it as a number; the unit % goes unstated.

Recorded post-emergence efficacy SETVI, per entry:
Cc1ccc2c(c1)[C@H](Nc1ncc3c(n1)CCCC3=O)[C@@H](C)C2 [2.118]; 80
Cc1ccc2c(c1)[C@H](Nc1ncc3c(n1)CC(C)(C)CC3=O)[C@@H](C)C2 [2.45]; 90
CC(=O)c1cnc(N[C@H]2c3cc(C)ccc3C[C@@H]2C)nc1C [1.26]; 90

API: the following record is the query input.
Please fill in: post-emergence efficacy SETVI reported for O=C1CCCc2nc(NC3CCc4ccccc43)ncc21 (racemic) [2.91] = 90
